For each of the compounds below, state its Fe content.
Test system: Soybean plants (Glycine max L. cv. Stine 0480) with induced Fe chlorosis
Assay: Efficacy of Fe chelates to provide Fe to soybean plants in hydroponics: Fe content in plants
Format: in vivo
Conditions: 10 μM chelate (high dose), 1st sampling 7 days after treatment
Express it in a μg Fe per plant; write the number only.

Identify measured Fe content obtained with Soybean plants (Glycine max L. cv. Stine 0480) with induced Fe chlorosis for O=C([O-])C(NCCNC(C(=O)[O-])c1ccccc1[O-])c1ccccc1[O-].[Fe+3] (stereo not shown) .
61.4

Recall the reported Fe content of O=C([O-])C(NCCNC(C(=O)[O-])c1ccccc1[O-])c1ccc(O)cc1.[Fe+3] (stereo not shown) when tested on Soybean plants (Glycine max L. cv. Stine 0480) with induced Fe chlorosis.
77.8

// fetch Fe content; item: O=C([O-])C(NCCNCc1ccccc1[O-])c1ccccc1[O-].[Fe+3] (stereo not shown) ; system: Soybean plants (Glycine max L. cv. Stine 0480) with induced Fe chlorosis
69.3

----------
Tested on: Soybean plants (Glycine max L. cv. Stine 0480) with induced Fe chlorosis
Test: Efficacy of Fe chelates to provide Fe to soybean plants in hydroponics: Fe content in plants
Assay type: in vivo
Settings: 5 μM chelate (low dose), 3rd sampling 21 days after treatment
endpoint-name: Fe content (b μg Fe per plant)
Hi! Could you send only the number? It should be in b μg Fe per plant, unit omitted.

Answer with the recorded Fe content of O=C([O-])C(NCCNC(C(=O)[O-])c1ccccc1[O-])c1ccc(O)cc1.[Fe+3] (stereo not shown) only.
223

Provide Fe content value for the following compound: O=C([O-])C(NCCNC(C(=O)[O-])c1ccccc1[O-])c1ccccc1[O-].[Fe+3] (stereo not shown)
202

----------
For each record, write down the corresponding SPAD index.
Tested on: Soybean plants (Glycine max L. cv. Stine 0480) with induced Fe chlorosis
Assay: Efficacy of Fe chelates to provide Fe to soybean plants in hydroponics: SPAD index
Format: in vivo
Conditions: 10 μM chelate, 20 days after treatment (4th stage)
Write the value in a as a bare number.

Param request: SPAD index | system Soybean plants (Glycine max L. cv. Stine 0480) with induced Fe chlorosis | item O=C([O-])C(NCCNCc1ccccc1[O-])c1ccccc1[O-].[Fe+3] (stereo not shown)
35.0

Specify the recorded SPAD index for O=C([O-])C(NCCNC(C(=O)[O-])c1ccccc1[O-])c1ccccc1[O-].[Fe+3] (stereo not shown) , system: Soybean plants (Glycine max L. cv. Stine 0480) with induced Fe chlorosis.
32.4

Return reported SPAD index for target or system Soybean plants (Glycine max L. cv. Stine 0480) with induced Fe chlorosis, item O=C([O-])C(NCCNC(C(=O)[O-])c1ccccc1[O-])c1ccc(O)cc1.[Fe+3] (stereo not shown) .
32.9

Ref: patent US7943797B2
